- system name: Cholinesterase (Equus caballus)
- Sequence (P81908 whole entry): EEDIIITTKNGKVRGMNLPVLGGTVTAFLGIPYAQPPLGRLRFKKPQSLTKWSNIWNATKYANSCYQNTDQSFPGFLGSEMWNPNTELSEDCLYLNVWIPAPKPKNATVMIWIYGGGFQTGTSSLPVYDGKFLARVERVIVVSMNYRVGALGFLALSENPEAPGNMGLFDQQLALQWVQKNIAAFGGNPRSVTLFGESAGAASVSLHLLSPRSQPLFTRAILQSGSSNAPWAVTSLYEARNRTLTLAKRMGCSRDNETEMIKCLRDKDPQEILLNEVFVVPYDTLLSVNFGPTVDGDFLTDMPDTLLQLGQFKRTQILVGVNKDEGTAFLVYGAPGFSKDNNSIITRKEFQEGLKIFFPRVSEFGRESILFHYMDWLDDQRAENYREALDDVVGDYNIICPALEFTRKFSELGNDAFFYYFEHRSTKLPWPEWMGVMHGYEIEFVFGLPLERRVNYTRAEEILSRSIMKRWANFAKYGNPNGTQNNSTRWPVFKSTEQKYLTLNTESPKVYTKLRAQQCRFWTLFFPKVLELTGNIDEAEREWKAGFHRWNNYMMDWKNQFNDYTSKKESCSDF
Task for the reader: assign each of the following compounds its reported pIC50.
Give bare numbers, as −log10 of the molar value.

# example entries with known answers
- substance smiles: "O[C@H](CNCc1ccccc1)[C@H](Cc1ccccc1)NCC(c1ccccc1)c1ccccc1"
  measured metric: "pIC50"
  assay result: 6.02
- substance smiles: "COc1ccccc1CNC[C@H](O)[C@H](Cc1ccccc1)NCCC(c1ccccc1)c1ccccc1"
  measured metric: "pIC50"
  assay result: 6.00

Next item in the queue.
Input line: Form field - read-out: pIC50; system: Cholinesterase (Equus caballus); submitted item: "C[C@H](NC[C@@H](O)[C@H](Cc1ccccc1)NCCC(c1ccccc1)c1ccccc1)c1ccccc1"
Output line: 6.01

----------
- system name: GABA transporter 4 (Mus musculus, UniProt P31650)
- Sequence (P31650 whole entry): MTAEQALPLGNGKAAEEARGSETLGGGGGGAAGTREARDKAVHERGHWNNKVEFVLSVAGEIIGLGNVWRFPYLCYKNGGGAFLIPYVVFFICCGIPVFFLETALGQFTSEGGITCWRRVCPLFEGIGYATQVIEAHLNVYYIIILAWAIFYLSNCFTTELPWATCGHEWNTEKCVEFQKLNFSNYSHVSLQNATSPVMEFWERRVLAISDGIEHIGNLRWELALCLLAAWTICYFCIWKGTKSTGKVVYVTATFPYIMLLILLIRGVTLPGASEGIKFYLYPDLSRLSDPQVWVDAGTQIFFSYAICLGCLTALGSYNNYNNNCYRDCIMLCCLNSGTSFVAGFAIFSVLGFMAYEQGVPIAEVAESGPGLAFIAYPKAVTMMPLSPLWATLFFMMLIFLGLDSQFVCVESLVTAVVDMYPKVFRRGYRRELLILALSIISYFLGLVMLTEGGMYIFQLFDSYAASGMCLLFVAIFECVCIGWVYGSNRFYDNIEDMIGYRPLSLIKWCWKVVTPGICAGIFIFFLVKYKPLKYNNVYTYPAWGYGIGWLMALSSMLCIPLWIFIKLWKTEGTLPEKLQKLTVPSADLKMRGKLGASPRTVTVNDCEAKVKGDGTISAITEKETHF
- experiment summary: Inhibition of mouse GAT4 expressed in HEK293 cell line assessed as reduction in [3H]GABA uptake incubated for 10 mins
measured metric: log10(IC50) (log10 of the value in µM)
Please be aware that the numbers have been log10-transformed from IC50 in µM.

# example entries with known answers
- substance smiles: "O=C(N[C@@H](Cc1ccccc1)[C@@H](O)CNCc1ccccc1)C(c1ccccc1)c1ccccc1"
  log10(IC50): 1.43
- substance smiles: "CC(C)(C)CNC[C@@H](O)[C@H](Cc1ccccc1)NCC(c1ccccc1)c1ccccc1"
  log10(IC50): 0.99
- substance smiles: "COc1ccccc1CNC[C@H](O)[C@H](Cc1ccccc1)NC(=O)C(c1ccccc1)c1ccccc1"
  log10(IC50): 1.30
- substance smiles: "CC(C)(C)CNC[C@@H](O)[C@H](Cc1ccccc1)NC(=O)C(c1ccccc1)c1ccccc1"
  log10(IC50): 1.49

Answer for every listed entry: what is its log10(IC50)? The entries follow.
1. O=C(N[C@@H](Cc1ccccc1)[C@H](O)CNCC1CC1)C(c1ccccc1)c1ccccc1
2. O=C(CC(c1ccccc1)c1ccccc1)N[C@@H](Cc1ccccc1)[C@H](O)CNCC1CC1
3. O[C@@H](CNCc1ccccc1)[C@H](Cc1ccccc1)NCCC(c1ccccc1)c1ccccc1

Output line:
[1.87, 1.55, 0.74]

----------
- system name: GABA transporter 4 (Mus musculus)
- experiment summary: Inhibition of mouse GAT3 expressed in HEK293 cell line assessed as reduction in [3H]GABA uptake at 100 uM incubated for 10 mins relative to control
- Assay type: cell-based
measured metric: inhibition (%)
Numbers only, in %.

- substance smiles: "O=C(CC(c1ccccc1)c1ccccc1)N[C@@H](Cc1ccccc1)[C@@H](O)CNCc1ccccc1"
  inhibition (%): 76
- substance smiles: "CC(C)(C)c1cccc(CNC[C@@H](O)[C@H](Cc2ccccc2)NC(=O)C(c2ccccc2)c2ccccc2)c1"
  inhibition (%): 55
- substance smiles: "C[C@H](NC[C@@H](O)[C@H](Cc1ccccc1)NC(=O)C(c1ccccc1)c1ccccc1)c1ccccc1"
  inhibition (%): 84
- substance smiles: "O=C(CC(c1ccccc1)c1ccccc1)N[C@@H](Cc1ccccc1)[C@H](O)CNCC1CC1"
  inhibition (%): 51
- substance smiles: "C[C@H](NC[C@@H](O)[C@H](Cc1ccccc1)NC(=O)CC(c1ccccc1)c1ccccc1)c1ccccc1"
  inhibition (%): 69

Answer for every listed entry: what is its inhibition? The entries follow.
1. COc1ccccc1CNC[C@H](O)[C@H](Cc1ccccc1)NC(=O)C(c1ccccc1)c1ccccc1
2. COc1cccc(CNC[C@@H](O)[C@H](Cc2ccccc2)NC(=O)CC(c2ccccc2)c2ccccc2)c1
3. O=C(N[C@@H](Cc1ccccc1)[C@@H](O)CNCc1ccccc1)C(c1ccccc1)c1ccccc1
4. O=C(N[C@@H](Cc1ccccc1)[C@H](O)CNCC(F)(F)F)C(c1ccccc1)c1ccccc1

Output line:
69
92
52
92

----------
- system name: Amyloid-beta precursor protein (Homo sapiens) (UniProt P05067)
- Sequence (P05067 whole entry): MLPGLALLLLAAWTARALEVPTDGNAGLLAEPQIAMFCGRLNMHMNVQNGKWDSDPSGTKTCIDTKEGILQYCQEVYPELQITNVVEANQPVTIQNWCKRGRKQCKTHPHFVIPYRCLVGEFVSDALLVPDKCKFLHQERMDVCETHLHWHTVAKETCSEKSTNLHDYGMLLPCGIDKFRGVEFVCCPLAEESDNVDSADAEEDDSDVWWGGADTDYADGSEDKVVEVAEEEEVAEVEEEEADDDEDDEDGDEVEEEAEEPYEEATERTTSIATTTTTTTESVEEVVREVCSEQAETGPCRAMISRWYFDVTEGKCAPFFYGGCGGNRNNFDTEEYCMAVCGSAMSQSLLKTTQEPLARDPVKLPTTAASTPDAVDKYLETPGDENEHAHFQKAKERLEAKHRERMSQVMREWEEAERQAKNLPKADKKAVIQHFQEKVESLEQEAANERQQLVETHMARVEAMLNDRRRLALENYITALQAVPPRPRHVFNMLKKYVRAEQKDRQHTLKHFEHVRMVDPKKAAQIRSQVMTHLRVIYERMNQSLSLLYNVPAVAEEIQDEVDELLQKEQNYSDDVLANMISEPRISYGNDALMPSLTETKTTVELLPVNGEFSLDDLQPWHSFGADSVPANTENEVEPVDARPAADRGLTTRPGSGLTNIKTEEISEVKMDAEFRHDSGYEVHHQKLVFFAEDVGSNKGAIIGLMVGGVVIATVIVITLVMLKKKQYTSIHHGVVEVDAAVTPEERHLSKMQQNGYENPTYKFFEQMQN
- experiment summary: Inhibition of HFIP-pretreated amyloid beta (1 to 42) (unknown origin) aggregation at 10 uM after 36 to 48 hrs by thioflavin-T fluorescence assay relative to control
- condition set: time 36-48 hrs
Task for the reader: assign each of the following compounds its reported inhibition.
Give bare numbers, in %.

# example entries with known answers
- substance smiles: "O=C(N[C@@H](Cc1ccccc1)[C@H](O)CNCC1CC1)C(c1ccccc1)c1ccccc1"
  measured metric: "inhibition"
  assay result: 20.5
- substance smiles: "CC(C)c1cccc(CNC[C@@H](O)[C@H](Cc2ccccc2)NCCC(c2ccccc2)c2ccccc2)c1"
  measured metric: "inhibition"
  assay result: 34.7

Next item in the queue.
Input line: Form field - read-out: inhibition; system: Amyloid-beta precursor protein (Homo sapiens) (UniProt P05067); submitted item: "CC(C)(C)c1cccc(CNC[C@@H](O)[C@H](Cc2ccccc2)NC(=O)C(c2ccccc2)c2ccccc2)c1"
Output line: 20.5

----------
- system name: Acetylcholinesterase (Electrophorus electricus)
- experiment summary: Inhibition of electric eel AChE at 10 uM using acetylthiocholine as substrate preincubated for 5 mins followed by substrate addition and measured after 5 mins by Ellman's method relative to control
- condition set: time 10.0 min
measured metric: inhibition

# example entries with known answers
- compound: "O=C(CC(c1ccccc1)c1ccccc1)N[C@@H](Cc1ccccc1)[C@H](O)CNCC1CC1"
  inhibition: "< 10%"
- compound: "O=C(N[C@@H](Cc1ccccc1)[C@@H](O)CNCc1cccc(C(F)(F)F)c1)C(c1ccccc1)c1ccccc1"
  inhibition: "< 10%"
- compound: "O[C@H](CNCc1ccccc1)[C@H](Cc1ccccc1)NCCC(c1ccccc1)c1ccccc1"
  inhibition: "< 10%"

Answer for every listed entry: what is its inhibition? The entries follow.
1. CC(C)(C)c1ccc(CNCC(O)[C@H](Cc2ccccc2)NC(=O)CC(c2ccccc2)c2ccccc2)cc1 (single isomer, unassigned)
2. CC(C)(NC[C@@H](O)[C@H](Cc1ccccc1)NCCC(c1ccccc1)c1ccccc1)c1ccccc1
3. O[C@@H](CNCc1ccccc1)[C@H](Cc1ccccc1)NCCC(c1ccccc1)c1ccccc1
4. O=C(CC(c1ccccc1)c1ccccc1)N[C@@H](Cc1ccccc1)[C@@H](O)CNCc1ccccc1
5. O=C(N[C@@H](Cc1ccccc1)[C@@H](O)CNCc1ccccc1)C(c1ccccc1)c1ccccc1
6. O=C(CC(c1ccccc1)c1ccccc1)N[C@@H](Cc1ccccc1)[C@@H](O)CNCc1cccc(C(F)(F)F)c1
7. O=C(N[C@@H](Cc1ccccc1)[C@H](O)CNCC(F)(F)F)C(c1ccccc1)c1ccccc1
8. CC(C)(C)c1cccc(CNCC(O)CNCCC(c2ccccc2)c2ccccc2)c1 (stereo not given)

Output line:
1: < 10%; 2: < 10%; 3: < 10%; 4: < 10%; 5: < 10%; 6: 36.8%; 7: < 10%; 8: 21.8%

Answer for every listed entry: what is its inhibition? The entries follow.
1. C[C@H](NC[C@@H](O)[C@H](Cc1ccccc1)NCC(c1ccccc1)c1ccccc1)c1ccccc1
2. C[C@H](NC[C@@H](O)[C@H](Cc1ccccc1)NC(=O)C(c1ccccc1)c1ccccc1)c1ccccc1
3. O=C(N[C@@H](Cc1ccccc1)[C@H](O)CNCc1ccccc1)C(c1ccccc1)c1ccccc1
4. CC(C)(NC[C@@H](O)[C@H](Cc1ccccc1)NC(=O)CC(c1ccccc1)c1ccccc1)c1ccccc1
5. C[C@H](NC[C@@H](O)[C@H](Cc1ccccc1)NC(=O)CC(c1ccccc1)c1ccccc1)c1ccccc1
6. CC(C)c1cccc(CNC[C@@H](O)[C@H](Cc2ccccc2)NC(=O)CC(c2ccccc2)c2ccccc2)c1
7. COc1cccc(CNC[C@@H](O)[C@H](Cc2ccccc2)NC(=O)CC(c2ccccc2)c2ccccc2)c1

Output line:
["< 10%", "< 10%", "< 10%", "< 10%", "< 10%", "24%", "< 10%"]

Answer for every listed entry: what is its inhibition? The entries follow.
1. CC(C)(C)c1ccc(CNC[C@H](O)[C@H](Cc2ccccc2)NC(=O)C(c2ccccc2)c2ccccc2)cc1
2. CC(C)(C)NC[C@H](O)[C@H](Cc1ccccc1)NC(=O)C(c1ccccc1)c1ccccc1

Output line:
["< 10%", "< 10%"]

----------
- system name: Beta-secretase 1 (Homo sapiens, UniProt P56817)
- Sequence (P56817 whole entry): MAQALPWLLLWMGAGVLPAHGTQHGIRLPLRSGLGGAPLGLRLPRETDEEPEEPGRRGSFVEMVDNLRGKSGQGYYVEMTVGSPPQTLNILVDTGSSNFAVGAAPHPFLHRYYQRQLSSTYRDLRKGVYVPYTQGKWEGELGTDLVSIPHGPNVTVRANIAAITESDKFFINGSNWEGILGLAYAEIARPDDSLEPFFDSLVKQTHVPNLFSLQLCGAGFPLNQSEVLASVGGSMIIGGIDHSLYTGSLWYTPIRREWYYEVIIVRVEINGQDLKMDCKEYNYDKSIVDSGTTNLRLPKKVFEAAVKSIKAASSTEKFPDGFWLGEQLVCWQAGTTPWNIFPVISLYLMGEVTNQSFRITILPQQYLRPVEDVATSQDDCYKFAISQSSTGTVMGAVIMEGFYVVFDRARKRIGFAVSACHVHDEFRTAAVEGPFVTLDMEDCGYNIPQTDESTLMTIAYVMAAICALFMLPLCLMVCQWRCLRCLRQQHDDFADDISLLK
- condition set: dose 50.0 µM, time 60.0 min
Class membership depends on inhibition alone; the intervals are bucket A = under 50%, bucket B = from 50% up to 60%, bucket C = 60% and over

Answered cases to consult:
- substance smiles: "CC(C)(C)NC[C@H](O)[C@H](Cc1ccccc1)NC(=O)C(c1ccccc1)c1ccccc1"
  class assignment: "bucket A"
- substance smiles: "O[C@H](CNCc1ccccc1)[C@H](Cc1ccccc1)NCCC(c1ccccc1)c1ccccc1"
  class assignment: "bucket B"
- substance smiles: "CC(C)(C)NC[C@H](O)[C@H](Cc1ccccc1)NC(=O)CC(c1ccccc1)c1ccccc1"
  class assignment: "bucket A"
- substance smiles: "CC(C)(C)CNC[C@@H](O)[C@H](Cc1ccccc1)NC(=O)C(c1ccccc1)c1ccccc1"
  class assignment: "bucket A"
- substance smiles: "O=C(N[C@@H](Cc1ccccc1)[C@H](O)CNCc1ccccc1)C(c1ccccc1)c1ccccc1"
  class assignment: "bucket B"
- substance smiles: "C[C@H](NC[C@@H](O)[C@H](Cc1ccccc1)NCC(c1ccccc1)c1ccccc1)c1ccccc1"
  class assignment: "bucket B"
- substance smiles: "COc1ccccc1CNC[C@H](O)[C@H](Cc1ccccc1)NCC(c1ccccc1)c1ccccc1"
  class assignment: "bucket B"
- substance smiles: "COc1cccc(CNC[C@@H](O)[C@H](Cc2ccccc2)NC(=O)C(c2ccccc2)c2ccccc2)c1"
  class assignment: "bucket A"
- substance smiles: "CC(C)c1cccc(CNC[C@@H](O)[C@H](Cc2ccccc2)NC(=O)C(c2ccccc2)c2ccccc2)c1"
  class assignment: "bucket C"
- substance smiles: "O=C(N[C@@H](Cc1ccccc1)[C@@H](O)CNCc1ccccc1)C(c1ccccc1)c1ccccc1"
  class assignment: "bucket C"

Input line: Place this compound in its band: "O[C@H](CNCc1ccccc1)[C@H](Cc1ccccc1)NCC(c1ccccc1)c1ccccc1"
Output line: bucket A

Input line: Place this compound in its band: "COc1ccccc1CNC[C@H](O)[C@H](Cc1ccccc1)NCCC(c1ccccc1)c1ccccc1"
Output line: bucket C

Input line: Place this compound in its band: "COc1ccccc1CNC[C@H](O)[C@H](Cc1ccccc1)NC(=O)C(c1ccccc1)c1ccccc1"
Output line: bucket C

Input line: Place this compound in its band: "CC(C)(NC[C@@H](O)[C@H](Cc1ccccc1)NCCC(c1ccccc1)c1ccccc1)c1ccccc1"
Output line: bucket C

Input line: Place this compound in its band: "CC(C)(C)CNC[C@@H](O)[C@H](Cc1ccccc1)NCC(c1ccccc1)c1ccccc1"
Output line: bucket C

Input line: Place this compound in its band: "O[C@@H](CNCc1ccccc1)[C@H](Cc1ccccc1)NCCC(c1ccccc1)c1ccccc1"
Output line: bucket B

Input line: Place this compound in its band: "O=C(CC(c1ccccc1)c1ccccc1)N[C@@H](Cc1ccccc1)[C@H](O)CNCC1CC1"
Output line: bucket A
